The reported measurements were obtained from PubChem BioAssay.

test: growth inhibition of GSK3B-pretreated HCT116 cells – cell-based, CellTiter-Glo, 0.2 to 20 µM (AID 1117336); conditions: HCT116 viability after GSK3B inhibitor, at 20 µM
Activity calls are given as the source filed them.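 Rule for the calls: active = compounds lowering colon cancer cell viability after pretreatment blocking the GSK3B kinase; inactive = the rest.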
Lab note: assign the record to one of active, inactive

Task: Please let me know the test result on file for Cc1ccc(C(C)OC(=O)C2(C)CCC(C(=O)O)C2(C)C)cc1 (stereo unspecified) .
Output: inactive

Task: Please let me know the test result on file for CC(N=C(NC#N)Nc1ccncc1)C(C)(C)C (stereo unspecified) .
Output: inactive

Task: Please let me know the test result on file for `O=C(O)c1ccccn1` .
Output: inactive

Task: Please let me know the test result on file for `Nc1c2c(nc3ccccc13)CCCC2` .
Output: inactive

Task: Please let me know the test result on file for `Clc1ccccc1-c1nc(-c2ccncc2)no1` .
Output: inactive

Task: Please let me know the test result on file for `NCCCC[C@H](N)C(=O)O` .
Output: inactive

Task: Please let me know the test result on file for `[O-][n+]1ccccc1SSc1cccc[n+]1[O-]` .
Output: active

Task: Please let me know the test result on file for `O=C1OC2(c3ccccc31)c1cc(Br)c(O)c(Br)c1Oc1c2cc(Br)c(O)c1Br` .
Output: inactive

Task: Please let me know the test result on file for CN(CC1(C)CCCO1)S(=O)(=O)c1ccc(Cl)c(S(N)(=O)=O)c1 (stereo unspecified) .
Output: inactive

Task: Please let me know the test result on file for `CC1(C)OC[C@@H](COC(=O)CCc2ccc(OC[C@@H](O)CNCCNC(=O)N3CCOCC3)cc2)O1` .
Output: inactive

Task: Please let me know the test result on file for `CN(C)c1cc(NC(=O)CNC(C)(C)C)c(O)c2c1C[C@@H]1C[C@H]3[C@H](N(C)C)C(=O)C(C(N)=O)=C(O)[C@@]3(O)C(=O)C1=C2O` .
Output: active
